- Assay Procedure: qHTS Assay for Enhancers of SMN2 Splice Variant Expression; further: nearly all actives have a fitted effect of over 55% in size; further: potency means the concentration at half of the fitted maximal effect
- Test Context: HEK293 SMN2-luciferase splicing reporter, luminescence, 30-36 h; series mostly up to 46.1 µM
Hit rate of the full screen: of about 210,000 compounds, about 5,900 (2.8%) were called active. Inconclusive results (about 5%) are left out. The full list was thinned out, with actives kept by preference.
Property Measured: Potency

>  <Compound>
COC(=O)c1ccccc1NC(=O)c1ccc2c(=O)n3c(nc2c1)CCCCC3

>  <Potency>
inactive

$$$$
>  <Compound>
COC(=O)c1c(NC(=O)c2ccc(Cl)c(Cl)c2)sc2c1CCCC2

>  <Potency>
inactive

$$$$
>  <Compound>
Cc1cccc(Cn2c(SCc3ccc(C(=O)N4CCC(C)CC4)cc3)nc3ccncc32)c1

>  <Potency>
inactive

$$$$
>  <Compound>
Cc1ccc2cc3cc(C(=O)N4CCCCCC4)oc3nc2c1

>  <Potency>
5.01 µM (active)

$$$$

Fill blank: measured Potency of the compound Cc1ccc(Cl)cc1NC(=O)C(C)n1nnc2sc(-c3ccccc3)cc2c1=O (stereo unspecified) is ____.
inactive

Fill blank: measured Potency of the compound O=C(c1ccco1)n1nc(-c2ccc(Cl)cc2)nc1NCc1ccccc1 is ____.
inactive

Fill blank: measured Potency of the compound CCOc1ccc(-n2c(C)nc3c(cnn3-c3ccc(C)cc3)c2=O)cc1 is ____.
inactive

Fill blank: measured Potency of the compound O=C1C(C=NCC2CCCO2)=C(O)c2ccccc21 (stereo unspecified) is ____.
11.2 µM (active)

Fill blank: measured Potency of the compound Cc1ccccc1OCC(=O)Nc1c(C(=O)Nc2ccccc2F)oc2ccccc12 is ____.
inactive

Fill blank: measured Potency of the compound Cc1ccc(-c2nc3cccc(C)n3c2Nc2ccc3c(c2)OCCO3)cc1 is ____.
inactive

Fill blank: measured Potency of the compound Cc1cc(=O)oc(C)c1C(=O)N1CCCCC1 is ____.
inactive

* * *

- Assay Procedure: qHTS Assay for Enhancers of SMN2 Splice Variant Expression; further: nearly all actives have a fitted effect of over 55% in size
- Test Context: HEK293 SMN2-luciferase splicing reporter, luminescence, 30-36 h; series mostly up to 46.1 µM
- Source text: NIH Chemical Genomics Center [NCGC] NIH Molecular Libraries Probe Production centers Network [MLPCN] MLPCN Grant: R03 MH084179-01 Assay Submitter (PI): Elliot Androphy NCGC Assay Overview: Spinal muscular atrophy (SMA) is caused by insufficient levels of the survival motor neuron protein SMN. The SMN locus on chromosome 5q13 contains two inverted copies of SMN called SMN1 and SMN2 which are 99% identical at the amino acid level. […]
Out of some 210,000 compounds screened, about 5,900 (2.8%) were called active. Not shown: some 5% with an inconclusive outcome. Calls come from the whole dose curve; as a rule, active = well fitted activation curve with a large enough effect; inconclusive = small, poorly fitted or top-dose-only effect; inactive = no such curve, though single readings can be large or run the other way. The entries come from a sample that favours actives as a whole.
Write down one outcome, taken from YES (active), NO (inactive)

Reference set (4 entries):
>  <Compound>
CCS(=O)(=O)C1=NSC2=NC(=O)/C(=C\c3cc(C)n(-c4cccc(OC)c4)c3C)C(=N)N21

>  <Discrete Label>
NO

$$$$
>  <Compound>
CCc1nn(CCCC(=O)NC(C)c2ccccc2)c(=O)c2cc3occc3n12 (stereo not given)

>  <Discrete Label>
NO

$$$$
>  <Compound>
COc1ccc(-n2c(C)nc3c(cnn3-c3ccc(F)cc3)c2=O)cc1

>  <Discrete Label>
NO

$$$$
>  <Compound>
O=C(Cn1c(=S)nc2ccccn21)N1CCc2ccccc2C1

>  <Discrete Label>
YES

$$$$

In the following, a different compound is considered.
Just curious, what result did Cc1cc(/C=C2/C(=N)N3C(=NC2=O)SN=C3S(C)(=O)=O)c(C)n1-c1ccccc1 get here?
YES
